# target-entity: Human AChE (Homo sapiens)
# Construct: purchased Sigma
# Sequence (P22303 32-614): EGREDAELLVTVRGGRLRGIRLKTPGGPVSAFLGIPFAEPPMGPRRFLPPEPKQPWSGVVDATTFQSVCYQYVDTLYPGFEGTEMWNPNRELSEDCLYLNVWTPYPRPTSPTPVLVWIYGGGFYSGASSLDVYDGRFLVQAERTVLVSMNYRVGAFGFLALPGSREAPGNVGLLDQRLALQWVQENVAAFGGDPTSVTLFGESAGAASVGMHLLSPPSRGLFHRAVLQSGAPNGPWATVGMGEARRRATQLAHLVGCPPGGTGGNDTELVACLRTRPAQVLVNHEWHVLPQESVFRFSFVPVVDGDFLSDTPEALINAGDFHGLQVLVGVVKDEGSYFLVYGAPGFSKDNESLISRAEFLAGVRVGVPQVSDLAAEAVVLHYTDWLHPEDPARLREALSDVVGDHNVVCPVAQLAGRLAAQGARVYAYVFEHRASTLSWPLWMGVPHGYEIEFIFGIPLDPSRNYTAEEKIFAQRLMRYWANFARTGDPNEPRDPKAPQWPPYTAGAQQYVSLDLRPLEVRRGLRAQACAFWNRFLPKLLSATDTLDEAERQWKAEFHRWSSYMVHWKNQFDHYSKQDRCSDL
# procedure-details: biochemical
# applied-conditions: read-out: AChE IC50

# molecule, IC50, µM
rows = [
    ("CN1c2ccc(OC(=O)Nc3cccnc3)cc2[C@]2(C)CCO[C@H]12 [Compound 11]", 1.7),
]

---

# procedure-details: Parallel artificial membrane permeability (IAM column) prediction of CNS permeability
# Type: in vitro ADME

# cpd-smiles, CNS perm (PAMPA)
records = [
    ("CC[C@@H]1C[C@@]2(C)c3cc(OC(=O)Nc4ccccc4)ccc3N(C)[C@H]2O1", 3.2),
    ("CN1c2ccc(OC(=O)Nc3ccc(OC(F)(F)F)cc3)cc2[C@]2(C)CCO[C@H]12", 0.7),
    ("CN1c2ccc(OC(=O)Nc3ccccc3)cc2[C@]2(C)CCO[C@H]12", 3.2),
]
